Target: TAK1 (Homo sapiens)
Sequence (O43318 1-303 limits assumed): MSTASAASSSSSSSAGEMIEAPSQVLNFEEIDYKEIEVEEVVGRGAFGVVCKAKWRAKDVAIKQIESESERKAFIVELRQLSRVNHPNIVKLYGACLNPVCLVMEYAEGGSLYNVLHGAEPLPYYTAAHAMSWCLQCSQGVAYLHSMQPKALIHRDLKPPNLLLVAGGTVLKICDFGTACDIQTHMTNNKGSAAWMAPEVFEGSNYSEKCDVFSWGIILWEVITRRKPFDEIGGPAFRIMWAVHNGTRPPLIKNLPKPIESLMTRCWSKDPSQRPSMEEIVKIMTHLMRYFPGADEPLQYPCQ
Assay: Kinase profiling (radiometric filter-binding)
Assay type: biochemical
Conditions: TAK1, 1 µM inhibitor; read-out: Residual activity, %
Square brackets hold non-standard residues; d marks the D form. Peptide text beside a SMILES is read from it. * marks the point of attachment. X3 = O=C(CCCCCNCc1nc2c(sc3cc(Br)cnc32)c(=O)[nH]1)*

- molecule: "N=C(N)NCCC[C@@H](NC(=O)CNC(=O)[C@@H](CCCNC(=N)N)NC(=O)[C@@H](CCCNC(=N)N)NC(=O)Cn1cc(CNCc2nc3c(sc4ccc(Br)cc43)c(=O)[nH]2)nn1)C(=O)N[C@H](CCCCN)C(N)=O [Compound 3, BBTP-Amt-(D-Arg)2-Gly-D-Arg-D-Lys-NH2]"
  remaining activity at 1 µM (%): 99
- molecule: "N=C(N)NCCC[C@@H](NC(=O)CCCCCNCc1nc2c(sc3cc(Br)cnc32)c(=O)[nH]1)C(=O)N[C@H](CCCNC(=N)N)C(=O)N[C@H](CCCNC(=N)N)C(=O)N[C@H](CCCNC(=N)N)C(=O)N[C@H](CCCNC(=N)N)C(=O)N[C@H](CCCNC(=N)N)C(=O)N[C@H](CCCCN)C(N)=O [ARC-3126, BPTP-Ahx-(D-Arg)6-D-Lys-NH2] (X3-[dR][dR][dR][dR][dR][dR][dK]-NH2)"
  remaining activity at 1 µM (%): 88
- molecule: "N=C(N)NCCC[C@@H](NC(=O)CCCCCNC(=O)Cn1cnc2c(I)c(I)c(I)c(I)c21)C(=O)N[C@H](CCCNC(=N)N)C(=O)N[C@H](CCCNC(=N)N)C(=O)N[C@H](CCCNC(=N)N)C(=O)N[C@H](CCCNC(=N)N)C(=O)N[C@H](CCCNC(=N)N)C(=O)N[C@H](CCCCN)C(N)=O [ARC-3125, TIBI-CH2-C(=O)-Ahx-(D-Arg)6-D-Lys-NH2]"
  remaining activity at 1 µM (%): 9
- molecule: "N=C(N)NCCC[C@@H](NC(=O)CNC(=O)[C@@H](CCCNC(=N)N)NC(=O)[C@@H](CCCNC(=N)N)NC(=O)CCCCCCCNCc1nc2c(sc3cc(Br)cnc32)c(=O)[nH]1)C(=O)N[C@H](CCCCN)C(N)=O [Compound 1, BPTP-Aoc-(D-Arg)2-Gly-D-Arg-D-Lys-NH2]"
  remaining activity at 1 µM (%): 107
- molecule: "N=C(N)NCCC[C@@H](NC(=O)CNC(=O)[C@@H](CCCNC(=N)N)NC(=O)[C@@H](CCCNC(=N)N)NC(=O)CCCCCCCNCc1nc2c(sc3ccc(Br)cc32)c(=O)[nH]1)C(=O)N[C@H](CCCCN)C(N)=O [Compound 2, BBTP-Aoc-(D-Arg)2-Gly-D-Arg-D-Lys-NH2]"
  remaining activity at 1 µM (%): 101

Where do the numbers come from? From paper PMC8307404.
